Readings of Pigweed plant response rating for the listed compounds
# Test system: pigweed
# RUN_DESCRIPTION: Test B pre-/postemergence herbicide test
# Assay type: in vivo, Amaranthus retroflexus
# COND: 125 g ai/ha; visual rating, scale 0 (no effect) to 100 (complete control); postemergence

Answered examples (3):
CCNC(=O)c1ccc(F)c(NC(=O)c2c3c(nn2CC)C(C)(C)CC3)c1; 30
Cc1nn(C(C)(C)C)nc1C(=O)Nc1cccc(C(=O)N2CC=CC2)c1; 40
CCc1nn(C(C)(C)C)nc1C(=O)Nc1cccc(C(=O)N(C)CC)c1; 30

Lab note: next compound to report on.
Tell us which Pigweed plant response rating value is on record for Cc1nn(C(C)C)nc1C(=O)Nc1cc(C(=O)N(C)C)ccc1F 0

Recorded values, source patent US20060069132A1.
